- System: HIV-1 fusion
- MEASUREMENT DESCRIPTION: gp160 induced cell-cell fusion assay (HeLa P4 / CHO-Tat10 cell lines)
- Type: cell-based
- CONDITION SUMMARY: Human immunodeficiency virus 1, HeLaP4, read-out: IC50 against HIV-1 fusion
READOUT: pIC50
Scale: negative log10 of molar concentration, which is what pIC50 denotes.

Past entries and their recorded results:
>>> recorded_value("Cc1ccnc(C)c1C(=O)N1CCC(C)(N2CCC(N(Cc3cccc(F)c3)C(=O)C3CC3)CC2)CC1")
9.46
>>> recorded_value("Cc1ncnc(C)c1C(=O)N1CCC(C)(N2CCC(N(Cc3ccccc3F)C(=O)C3CC(F)(F)C3)CC2)CC1")
8.26

Incoming: Note down pIC50 recorded for Cc1ncnc(C)c1C(=O)N1CCC(C)(N2CCC(N(Cc3ccccc3)S(C)(=O)=O)CC2)CC1
Outgoing: 6.46

Incoming: Note down pIC50 recorded for Cc1ncnc(C)c1C(=O)N1C[C@H]2CC[C@@H](C1)[C@H]2N1CCC(N(Cc2ccccc2)C(=O)C2CC2)CC1
Outgoing: 6.29

Incoming: Note down pIC50 recorded for Cc1ccnc(C)c1C(=O)N1CCC(C)(N2CCC(N(Cc3ccccc3)C(=O)C3CC(F)(F)C3)CC2)CC1
Outgoing: 10.89
